- System Under Test: Peroxisome proliferator-activated receptor gamma (Homo sapiens, UniProt P37231)
- Sequence (P37231 whole entry): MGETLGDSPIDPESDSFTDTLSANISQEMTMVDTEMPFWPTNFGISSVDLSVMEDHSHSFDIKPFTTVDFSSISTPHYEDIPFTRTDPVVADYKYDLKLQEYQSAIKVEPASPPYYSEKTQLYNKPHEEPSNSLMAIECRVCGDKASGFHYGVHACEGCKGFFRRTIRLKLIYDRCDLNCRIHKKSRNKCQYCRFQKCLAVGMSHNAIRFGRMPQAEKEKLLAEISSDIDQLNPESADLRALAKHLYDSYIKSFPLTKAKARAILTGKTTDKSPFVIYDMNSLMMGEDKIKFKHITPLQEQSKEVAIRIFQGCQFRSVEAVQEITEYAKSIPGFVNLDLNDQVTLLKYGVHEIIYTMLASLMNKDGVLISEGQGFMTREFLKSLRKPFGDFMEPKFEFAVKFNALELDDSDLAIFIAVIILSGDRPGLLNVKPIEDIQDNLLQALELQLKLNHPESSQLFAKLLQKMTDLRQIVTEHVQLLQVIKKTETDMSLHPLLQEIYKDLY
Property Name: pKi
Answers are plain numbers, as −log10 of the molar value.

For reference, reported pKi for CN(CCOc1ccc(CC(CCCc2ccccc2)C(=O)O)cc1)c1nc2ccccc2o1 (stereo unspecified) stands at 7.52

----------
- System Under Test: Peroxisome proliferator-activated receptor gamma (Homo sapiens)
- Protocol Description: Inhibition of [125I]SB 236636 binding to human PPAR gamma receptor
Property Name: Ki (nM)
Answers are plain numbers, in nM.

For reference, reported Ki for CC(Cc1ccc(OCCN(C)c2nc3ccccc3o2)cc1)C(=O)O (stereo unspecified) stands at 1500
